Hello, the source for this data is PubChem BioAssay, in case you need it.

Measured composite z-score of individual entries
METHOD_DESCRIPTION: probe aNOTCH2 binding on compound microarray – biochemical, small-molecule microarray, 635/667 nm fluorescence, primary screen (AID 1121);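 further: score merges feature fluorescence read at 667 nm with its signal to noise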
MEASUREMENT_CONDITIONS: higher = more signal
PROPERTY_NAME: composite z-score

[[record]]
compound = "COC(=O)C(CC#Cc1ccc2c(c1)[C@]1(C(=O)N2)[C@H](C(=O)N2CCc3cc(OC)c(OC)cc3C2)[C@H]2C(=O)O[C@H](c3ccccc3)[C@H](c3ccccc3)N2[C@@H]1c1ccccc1OCCO)C(=O)OC"
property_name = "composite z-score"
reported_value = -0.135

[[record]]
compound = "COC(=O)[C@@]1(Cc2ccccc2)[C@H]2c3cc(C(=O)N4CCCC4)n(Cc4ccc(OC)c(OC)c4)c3C[C@H]2CN1C(=O)c1ccccc1"
property_name = "composite z-score"
reported_value = 0.204

[[record]]
compound = "CCOC(=O)C[C@H]1[C@H](OC(=O)Cc2ccc3c(c2)OCO3)[C@@H](NC(=O)c2ccc3ccccc3n2)c2cc(OCCCO)ccc2N1C(=O)Cc1ccc(OC)cc1"
property_name = "composite z-score"
reported_value = -0.0286

[[record]]
compound = "COC(=O)[C@@]1(Cc2ccc(F)cc2)[C@H]2c3cc(C(=O)N(C)C)n(CCc4ccc(O)c(O)c4)c3C[C@H]2CN1C(=O)c1ccccc1"
property_name = "composite z-score"
reported_value = 0.256

[[record]]
compound = "CC(C)NC(=O)[C@@H]1c2ccccc2C(=O)N(Cc2ccc(OC(F)(F)F)cc2)[C@H]1c1ccc(CO)cc1"
property_name = "composite z-score"
reported_value = 0.321

[[record]]
compound = "COCCOC(=O)N1C(=O)[C@@]2(c3cc(C#CCC(C(=O)OC)C(=O)OC)ccc31)[C@H](C(=O)Nc1nc3ccccc3s1)[C@H]1C(=O)O[C@H](c3ccccc3)[C@H](c3ccccc3)N1[C@@H]2c1ccc(O)cc1"
property_name = "composite z-score"
reported_value = -0.0282

[[record]]
compound = "CN1C(=O)C2C=CC(C(O)c3ccc(-c4ccccc4)s3)N(NC(=O)OC(C)(C)C)C2C1=O (stereo not drawn)"
property_name = "composite z-score"
reported_value = 0.164

[[record]]
compound = "O=C(NCCN1CCOCC1)[C@@H]1c2ccccc2C(=O)N(Cc2ccc(OC(F)(F)F)cc2)[C@H]1c1ccc(CO)cc1"
property_name = "composite z-score"
reported_value = -0.0429

[[record]]
compound = "COC(=O)[C@@]1(Cc2ccc(OC)cc2)[C@H]2c3cc(C(=O)N4CCCC4)n(Cc4ccc(Cl)c(C(F)(F)F)c4)c3C[C@H]2CN1C(=O)c1ccccc1"
property_name = "composite z-score"
reported_value = 0.162

[[record]]
compound = "CC(C)C(CO)N1C(=O)[C@@H]2C3C(=O)OCCC/C=C\\[C@H]3OC23C=CCN(Cc2ccccc2)C(=O)[C@@H]13 (stereo partly drawn)"
property_name = "composite z-score"
reported_value = -0.11

[[record]]
compound = "COC(=O)[C@H](Cc1ccc(O)cc1)N[C@@H](/C=C/C1CC1)[C@H](O)Cc1ccccc1"
property_name = "composite z-score"
reported_value = -0.172

[[record]]
compound = "COc1ccc([Si](C)(C)[C@@H]2[C@@H](CC(=O)N3CCC[C@H]3CO)O[C@]3(C(=O)N(Cc4cccc(N5CCCCC5=O)c4)c4ccccc43)[C@H]2C)cc1"
property_name = "composite z-score"
reported_value = -0.127

[[record]]
compound = "O=C1O[C@H](Cc2ccccc2)[C@@H]2[C@H]3C=CCCC=C3CN2[C@H]1Cc1ccc(O)cc1"
property_name = "composite z-score"
reported_value = -0.122


* * *

METHOD_DESCRIPTION: blockers of DNA damage checkpoint Chk1 activation – imaging, HeLa, hydroxyurea, phospho-Chk1 nuclear intensity, primary screen (AID 1187); further: test concentration not given here
MEASUREMENT_CONDITIONS: hydroxyurea-induced phospho-Chk1 immunofluorescence imaging, higher = more signal
PROPERTY_NAME: z-score

[[record]]
compound = "CC(C)N1C(=O)c2ccccc2[C@@H](C(=O)NCC(F)(F)F)[C@@H]1c1ccc(CO)cc1"
property_name = "z-score"
reported_value = 0.11

[[record]]
compound = "C=CCC(OC(C)=O)[C@@H]1[C@@H](N(Cc2cccc3ccccc23)C(=O)Cc2ccc(OC)cc2)c2cc(OCCCO)ccc2N1C(=O)c1ccc2ccccc2c1 (some centres not stated)"
property_name = "z-score"
reported_value = -0.0189

[[record]]
compound = "CCOC(=O)C1=CC[C@@H](c2ccccc2)N(S(=O)(=O)c2ccc(C)cc2)[C@H]1c1ccccc1I"
property_name = "z-score"
reported_value = -0.763

[[record]]
compound = "CCOC(=O)C[C@H]1[C@H](OC(=O)c2ccccc2-c2ccccc2)[C@@H](NC(=O)C2CCCCC2)c2cc(OCCCO)ccc2N1C(=O)c1ccc2ccccc2n1"
property_name = "z-score"
reported_value = -0.108

[[record]]
compound = "O=C1C[C@@](C(=O)O)(c2ccc([N+](=O)[O-])cc2)[C@@H](c2ccc(CO)cc2)N1C1CCCCC1"
property_name = "z-score"
reported_value = 0.0584

[[record]]
compound = "CC(=O)OCC1C2CC[C@H]3C(OCc4ccc(F)cc4C(F)(F)F)OC[C@]4(C)[C@H]3C2=C(CN4C(=O)OC(C)(C)C)[C@H](C)C1COC(C)=O (some centres not stated)"
property_name = "z-score"
reported_value = 0.833

[[record]]
compound = "CN(C)CCCC[C@@H]1NC(=O)[C@H]2C[C@@H](C(=O)O)[C@@H](c3ccc(O)cc3)N2C1=O"
property_name = "z-score"
reported_value = 0.571


* * *

EXPERIMENTAL_TARGET: Epidermal growth factor receptor (Homo sapiens)
METHOD_DESCRIPTION: compounds binding epidermal growth factor receptor – biochemical, small-molecule microarray, 635 nm fluorescence, primary screen (AID 1104);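 further: score merges 667 nm emission intensity with spot signal to noise over triplicate slides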
MEASUREMENT_CONDITIONS: EGFR binding, higher = more signal
# label = bin(measured composite z-score), where bins are bottom (below -0.4), middle (-0.4 to below 0.2), top (0.2 or more)

[[record]]
compound = "CCCCC(O)C1C=CC2C(=O)N(c3ccccc3)C(=O)C2N1Nc1ccc([N+](=O)[O-])cc1 (centres undefined)"
experimental_target = "Epidermal growth factor receptor (Homo sapiens)"
answer_label = "middle"

[[record]]
compound = "C[C@]1(C(=O)O)c2ccccc2C(=O)N(Cc2cc(F)cc(C(F)(F)F)c2)[C@H]1c1ccc(CO)cc1"
experimental_target = "Epidermal growth factor receptor (Homo sapiens)"
answer_label = "top"

[[record]]
compound = "N#Cc1ccc(C(O)C2C=CC3C(=O)NC(=O)C3N2Nc2ccc(Cl)cc2Cl)cc1 (centres undefined)"
experimental_target = "Epidermal growth factor receptor (Homo sapiens)"
answer_label = "middle"

[[record]]
compound = "O=C1N(Cc2ccccc2)c2ccccc2C[C@@]12COC(c1ccc(OCCCO)cc1)=N2"
experimental_target = "Epidermal growth factor receptor (Homo sapiens)"
answer_label = "bottom"

[[record]]
compound = "C[C@@H]1ON(c2ccccc2)[C@H](c2ccccc2)[C@H]1C(=O)O"
experimental_target = "Epidermal growth factor receptor (Homo sapiens)"
answer_label = "bottom"

[[record]]
compound = "CC(C)(C)N1CC=CC23O[C@@H]4C=CCCOC(=O)C4[C@H]2C(=O)N(CCCCCCO)[C@@H]3C1=O (some centres undefined)"
experimental_target = "Epidermal growth factor receptor (Homo sapiens)"
answer_label = "bottom"

[[record]]
compound = "O=C1O[C@@H](c2ccccc2)[C@@H](c2ccccc2)N2[C@@H](c3ccc(OCCO)cc3)[C@]3(C(=O)Nc4ccc(C#CC5(O)CCCCCC5)cc43)[C@@H](C(=O)O)[C@H]12"
experimental_target = "Epidermal growth factor receptor (Homo sapiens)"
answer_label = "middle"

[[record]]
compound = "O=C1[C@H]2C=C(I)[C@H](C[C@@H]2c2ccccc2)[C@@]12CO2"
experimental_target = "Epidermal growth factor receptor (Homo sapiens)"
answer_label = "top"

[[record]]
compound = "O=C1[C@@H]2[C@@H](CC(COc3ccccc3)=C([C@H](O)CCc3ccccc3)[C@@H]2CO)C(=O)N1Cc1ccccc1"
experimental_target = "Epidermal growth factor receptor (Homo sapiens)"
answer_label = "top"


* * *

EXPERIMENTAL_TARGET: Homeobox protein Hox-A13 (Mus musculus)
METHOD_DESCRIPTION: disruptors of Hoxa13 oligonucleotide interaction – biochemical, fluorescence polarization, labeled oligonucleotide, primary screen (AID 1185)
MEASUREMENT_CONDITIONS: Hoxa13:DNA binding, 15 min, higher = more signal, called active from +8 up or from −8 down
Use -4 as the dividing line for z-score, with the line itself on the met side and lower values as not met.

[[record]]
compound = "CC(C)(C)OC(=O)CC[C@]1(C(=O)NCC(O)CO)N=C(c2ccc(OCCCO)cc2)O[C@H]1c1ccccc1N=[N+]=[N-] (stereo partly specified)"
experimental_target = "Homeobox protein Hox-A13 (Mus musculus)"
answer_label = "not met"

[[record]]
compound = "CCCc1cc2c(n1CCc1ccc(Cl)cc1)C(C)C1CN(C(=O)c3ccccc3)C(C)(C(=O)OC)C21 (stereo unspecified)"
experimental_target = "Homeobox protein Hox-A13 (Mus musculus)"
answer_label = "not met"

[[record]]
compound = "OCCCC1=CC(c2ccc(CN3CCCC3)cc2)N(Cc2cccc(OC(F)(F)F)c2)CC1 (stereo unspecified)"
experimental_target = "Homeobox protein Hox-A13 (Mus musculus)"
answer_label = "met"

[[record]]
compound = "CO[C@H]1O[C@H](CO)[C@@H](OC(=O)Nc2ccc3c(c2)OCO3)[C@H](OC(=O)Nc2ccccc2-c2ccccc2)[C@H]1OC(=O)Nc1ccccc1-c1ccccc1"
experimental_target = "Homeobox protein Hox-A13 (Mus musculus)"
answer_label = "met"

[[record]]
compound = "O=C1O[C@@H](c2ccccc2)[C@@H](c2ccccc2)N2[C@@H](c3ccc(OCCO)cc3)[C@]3(C(=O)Nc4ccc(C#CCCO)cc43)[C@@H](C(=O)O)[C@H]12"
experimental_target = "Homeobox protein Hox-A13 (Mus musculus)"
answer_label = "not met"

[[record]]
compound = "CC(C)C[C@@H]1NC(=O)[C@@]23C(=O)N[C@@H](Cc4ccccc4)C2[C@H](C)[C@@]2(C)O[C@H]2C3/C=C/C/C=C\\CNC(=O)CNC1=O (stereo partly specified)"
experimental_target = "Homeobox protein Hox-A13 (Mus musculus)"
answer_label = "not met"

[[record]]
compound = "COc1ccc([Si](C)(C)[C@H]2[C@H](CC(=O)N3CCC[C@H]3CO)O[C@@]3(C(=O)N(Cc4ccc(N5CCCCC5=O)cc4)c4ccccc43)[C@@H]2C)cc1"
experimental_target = "Homeobox protein Hox-A13 (Mus musculus)"
answer_label = "not met"

[[record]]
compound = "CC1CC/C=C\\[C@H]2OC34C=CCN(CCN5CCOCC5)C(=O)[C@H]3N(CCCO)C(=O)[C@@H]4C2C(=O)O1 (stereo partly specified)"
experimental_target = "Homeobox protein Hox-A13 (Mus musculus)"
answer_label = "not met"

[[record]]
compound = "C[N+](C)(C)CCCC[C@@H]1NC(=O)[C@@H]2C[C@H](C(=O)NCc3ccc(F)cc3)[C@H](c3ccc(O)cc3)N2C1=O"
experimental_target = "Homeobox protein Hox-A13 (Mus musculus)"
answer_label = "met"

[[record]]
compound = "CC(C)c1nc2cc(Br)ccc2c(=O)o1"
experimental_target = "Homeobox protein Hox-A13 (Mus musculus)"
answer_label = "met"

[[record]]
compound = "CC(C)=CCCC(C)=CC(O)C1C=CC2C(=O)NC(=O)C2N1Nc1ccc(Cl)cc1Cl (stereo unspecified)"
experimental_target = "Homeobox protein Hox-A13 (Mus musculus)"
answer_label = "met"

[[record]]
compound = "NC(=O)NCC#Cc1ccc2c(c1)[C@]1(C(=O)N2)[C@H](c2ccc(OCCO)cc2)N2[C@H](c3ccccc3)[C@H](c3ccccc3)OC(=O)[C@H]2[C@@H]1C(=O)NC[C@H](O)c1ccccc1"
experimental_target = "Homeobox protein Hox-A13 (Mus musculus)"
answer_label = "met"

[[record]]
compound = "CCCN1C(=O)[C@]2(CCC(=O)OC(C)(C)C)N=C(c3ccc(OCCCO)cc3)O[C@@H]2c2ccccc21"
experimental_target = "Homeobox protein Hox-A13 (Mus musculus)"
answer_label = "met"

[[record]]
compound = "CCOC(=O)C[C@H]1[C@H](OC(=O)c2ccccc2-c2ccccc2)[C@@H](NC(=O)c2ccc3ccccc3c2)c2cc(OCCCO)ccc2N1C(=O)Cc1ccc(OC)cc1"
experimental_target = "Homeobox protein Hox-A13 (Mus musculus)"
answer_label = "met"

[[record]]
compound = "CN(C)c1ccc(C(O)C2C=CC3C(=O)N(Cc4ccccc4)C(=O)C3N2n2cnnc2)cc1 (stereo unspecified)"
experimental_target = "Homeobox protein Hox-A13 (Mus musculus)"
answer_label = "met"

[[record]]
compound = "CC(=O)NCCCC[C@@H]1NC(=O)[C@H]2C[C@@H](C(=O)NCCCCCCNC(=O)CS)[C@@H](c3cccc(OCCO)c3)N2C1=O"
experimental_target = "Homeobox protein Hox-A13 (Mus musculus)"
answer_label = "not met"

[[record]]
compound = "CC(C)[Si](C#CCCc1ccccc1)(O[C@H](c1ccccc1)c1cn(Cc2ccccc2)nn1)C(C)C"
experimental_target = "Homeobox protein Hox-A13 (Mus musculus)"
answer_label = "met"

[[record]]
compound = "CC(C)C[C@H]1NC(=O)C([C@@H](C)OCc2ccccc2)NC(=O)[C@@]23C(=O)N[C@@H](Cc4ccccc4)C2[C@H](C)[C@@]2(C)O[C@H]2C3/C=C/C/C=C\\CNC1=O (stereo partly specified)"
experimental_target = "Homeobox protein Hox-A13 (Mus musculus)"
answer_label = "not met"

[[record]]
compound = "CCCC[C@H]1C[C@@H]1[C@@H]1N(C(C)=O)[C@H](c2cccc(OC)c2)CC12CC2"
experimental_target = "Homeobox protein Hox-A13 (Mus musculus)"
answer_label = "met"

[[record]]
compound = "COCCOC(=O)N1C(=O)[C@@]2(c3cc(C#CCCO)ccc31)[C@H](C(N)=O)[C@H]1C(=O)O[C@H](c3ccccc3)[C@H](c3ccccc3)N1[C@@H]2c1ccccc1OCCO"
experimental_target = "Homeobox protein Hox-A13 (Mus musculus)"
answer_label = "met"

